tested on: DU-145; assay: NCI tumour cell line growth inhibition, 48 h
The source made the active and inactive calls. Cut-off read from the data, not from the text of the source: active = GI50 up to about 1.1 µM and inactive = higher.
Tick one outcome: active, inactive

Past entries and their recorded results:
COMPOUND	QUALITATIVE LABEL
CN1c2ccccc2C2c3c(O)ccc(O)c3C=C([N+](=O)[O-])C21 (configuration not stated)	inactive
CNC(=O)Nn1c(SC)nc2ccccc21	inactive

[in] State the result this test recorded for `COC(=O)c1c(-c2ccc(Cl)cc2)cc2c3ccccc3n(C)c2c1C(=O)OC` .
[out] inactive

[in] Hi, do you know how `CC(C)Cn1cnc2c(Sc3c([N+](=O)[O-])ncn3C)nc(N)nc21` came out in this test?
[out] inactive

----------
system: UACC-62; assay: NCI tumour cell line growth inhibition, 48 h
Calls of active or inactive are those of the source. No stated cut-off is given here; in the data, active = GI50 up to about 1.1 µM and inactive = higher.
Return exactly one item of active, inactive

COMPOUND	SYSTEM NAME	QUALITATIVE LABEL
CCOC(=O)/C=C1\c2ccccc2C(=O)N1CC(=O)OCC	UACC-62	inactive
Cc1ccc(NC(=O)C2C(=O)N(c3ccc(C)c(C)c3)C(=O)C2N=N)cc1C (configuration not stated)	UACC-62	inactive
Cc1cc(NC(=O)C(=O)Cc2nc3ccccc3s2)ccc1Cl	UACC-62	inactive
O=C(CSc1nc(O)nc2[nH]cnc12)Nc1ccccc1	UACC-62	inactive
CC(C)[C@]12O[C@H]1[C@@H]1O[C@]13[C@]1(O[C@H]1C[C@H]1C4=C(CC[C@@]13C)C(=O)OC4)[C@@H]2O [TRIPTOLIDE]	UACC-62	active

[in] Give the logged outcome of this assay for the following compound: CC(NC(=O)C(C)C(=O)NCc1ccc(C(F)(F)F)cc1)C(N)=O (configuration not stated)
[out] inactive

[in] For CC(=O)OC1O[C@@H](C(C)(C)O)CC[C@@H]1[C@H]1CC[C@@]2(C)C3=C(CC[C@]12C)[C@@]1(C)C[C@@H](OC(=O)CC(C)(O)CC(=O)O)[C@H](OC(C)=O)C(C)(C)C1CC3 (some centres not stated) , what call appears in the results of this test?
[out] inactive

----------
tested on: U-251; test: NCI tumour cell line growth inhibition, 48 h
Active and inactive are the calls of the source. Rule as the data show it: active = GI50 up to about 1.1 µM and inactive = higher.
Choose one outcome from this list and give only that: active, inactive

MOLECULE	QUALITATIVE LABEL
CC(=O)OC1O[C@@H](C(C)(C)O)CC[C@@H]1[C@H]1CC[C@@]2(C)C3=C(CC[C@]12C)[C@@]1(C)C[C@@H](OC(=O)CC(C)(O)CC(=O)O)[C@H](OC(C)=O)C(C)(C)C1CC3 (stereo not given in full)	inactive

[in] // return assay outcome for `COc1ccc(C(=O)c2c(C(C(=O)c3ccc(OC)cc3)C(=O)c3ccc(OC)cc3)n(C(=O)c3ccc(OC)cc3)c3ccccc23)cc1`
[out] inactive

[in] Identify the outcome logged in this assay for the molecule shown: CC(C)[C@]12O[C@H]1[C@@H]1O[C@]13[C@]1(O[C@H]1C[C@H]1C4=C(CC[C@@]13C)C(=O)OC4)[C@@H]2O [TRIPTOLIDE]
[out] active

[in] Status in this test for COc1cc(C2c3cc(O)c(OC)cc3C3OCC2C3CO)ccc1O (stereo not given) ?
[out] inactive

[in] Please let me know the test result on file for `CCCCCCCCCc1cccc(N2C(N)=NC(N)=NC2(C)C)c1` .
[out] active

Attribution: ChEMBL document CHEMBL1201862
